Numbers sourced from paper PMC12123727.

- assay-remarks: Phase 1 plasma pharmacokinetics
- Type: in vivo, human
- experimental-parameters: human, plasma, oral, 40 mg, AUC0-t, Mean ± SD, abexinostat continuous administration (BID, 4-h interval) on C1D7, 40 mg (n = 4)
measured-quantity: AUC(0-t) (ng·h/mL)
Kindly answer with a numeric value in ng·h/mL, unit omitted.

Record request: AUC(0-t) value, item `CN(C)Cc1c(C(=O)NCCOc2ccc(C(=O)NO)cc2)oc2ccccc12`
463

----------
- assay-remarks: Phase 1 plasma pharmacokinetics
- Format: in vivo, human
- experimental-parameters: human, plasma, po, 60 mg
measured-quantity: MRT last (h)
Kindly answer with a numeric value in h, unit omitted.

Record request: MRT last value, item `CN(C)Cc1c(C(=O)NCCOc2ccc(C(=O)NO)cc2)oc2ccccc12`
6.97

----------
- assay-remarks: Phase 1 plasma pharmacokinetics
- Type: in vivo, human
- experimental-parameters: human, plasma, oral, 40 mg, Tmax, Median, abexinostat continuous administration (BID, 4-h interval) on C1D7, 40 mg (n = 4)
measured-quantity: Tmax

Record request: Tmax value, item CN(C)Cc1c(C(=O)NCCOc2ccc(C(=O)NO)cc2)oc2ccccc12 [abexinostat, Abexinostat]
1 h

----------
- assay-remarks: Phase 1 plasma pharmacokinetics
- Format: in vivo, human
- experimental-parameters: human, plasma, oral, 80 mg, Tmax, Median, abexinostat continuous administration (BID, 4-h interval) on C1D7, 80 mg (n = 4)
measured-quantity: Tmax (h)
Kindly answer with a numeric value in h, unit omitted.

Record request: Tmax value, item CN(C)Cc1c(C(=O)NCCOc2ccc(C(=O)NO)cc2)oc2ccccc12 [abexinostat, Abexinostat]
2.74

----------
- assay-remarks: Phase 1 plasma pharmacokinetics
- Type: in vivo, human
- experimental-parameters: human, plasma, oral, 80 mg, Cmax, Mean ± SD, abexinostat continuous administration (BID, 4-h interval) on C1D7, 80 mg (n = 4)
measured-quantity: Cmax (ng/mL)
Kindly answer with a numeric value in ng/mL, unit omitted.

Record request: Cmax value, item `CN(C)Cc1c(C(=O)NCCOc2ccc(C(=O)NO)cc2)oc2ccccc12`
184

----------
- assay-remarks: Phase 1 plasma pharmacokinetics
- Type: in vivo, human
- experimental-parameters: human, plasma, oral, 40 mg, T1/2, Median, abexinostat continuous administration (BID, 4-h interval) on C1D7, 40 mg (n = 4)
measured-quantity: half-life (h)
Kindly answer with a numeric value in h, unit omitted.

Record request: half-life value, item CN(C)Cc1c(C(=O)NCCOc2ccc(C(=O)NO)cc2)oc2ccccc12 [abexinostat, Abexinostat]
4.84

----------
- assay-remarks: Phase 1 plasma pharmacokinetics
- Assay type: in vivo, human
- experimental-parameters: human, plasma, oral, 60 mg, T1/2, Median, abexinostat continuous administration (BID, 4-h interval) on C1D1, 60 mg (n = 3)
measured-quantity: half-life (h)
Kindly answer with a numeric value in h, unit omitted.

Record request: half-life value, item `CN(C)Cc1c(C(=O)NCCOc2ccc(C(=O)NO)cc2)oc2ccccc12`
6.28

----------
- assay-remarks: Phase 1 plasma pharmacokinetics
- Format: in vivo, human
- experimental-parameters: human, plasma, oral, 60 mg, Cmax, Mean ± SD, abexinostat continuous administration (BID, 4-h interval) on C1D1, 60 mg (n = 3)
measured-quantity: Cmax (ng/mL)
Kindly answer with a numeric value in ng/mL, unit omitted.

Record request: Cmax value, item `CN(C)Cc1c(C(=O)NCCOc2ccc(C(=O)NO)cc2)oc2ccccc12`
115
